Data origin: ChEMBL document CHEMBL1148594

Here, each record is paired with measured pEC50 data.
Biological target: Cannabinoid receptor 2 (Homo sapiens)
Sequence (P34972 whole entry): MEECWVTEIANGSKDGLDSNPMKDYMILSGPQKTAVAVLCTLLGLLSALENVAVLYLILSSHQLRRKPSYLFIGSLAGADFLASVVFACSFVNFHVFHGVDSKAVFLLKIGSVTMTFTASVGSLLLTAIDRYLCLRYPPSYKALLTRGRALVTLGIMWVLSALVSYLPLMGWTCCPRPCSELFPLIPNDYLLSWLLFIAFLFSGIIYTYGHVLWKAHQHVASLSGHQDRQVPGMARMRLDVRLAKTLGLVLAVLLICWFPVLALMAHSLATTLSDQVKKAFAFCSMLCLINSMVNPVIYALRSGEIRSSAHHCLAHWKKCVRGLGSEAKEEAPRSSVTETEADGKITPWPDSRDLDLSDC
Assay: Effect on [35S]GTP-gamma-S binding to human CB2 receptor
Assay type: functional
Quick note: pEC50 means taking -log10 of the concentration in moles per liter.

Worked examples follow.
CCCCCn1cc(C(=O)NC23CC4CC(C)(CC(C)(C4)C2)C3)c(=O)c2ccccc21 :: 7.85
CCCC(C)(C)c1ccc2c(c1)OC(C)(C)[C@@H]1CC=C(C)C[C@@H]21 :: 6.84
CCCCCn1cc(C(=O)NC2C3CC4CC(C3)CC2C4)c(=O)c2ccccc21 (stereo not given) :: 7.61

Entry under review: CCCCCn1cc(C(=O)NC2CCCc3ccccc32)c(=O)c2ccccc21 (racemic) . Reported pEC50?
6.80

Entry under review: CCCCCn1cc(C(=O)N[C@H](C)c2ccccc2)c(=O)c2ccccc21 . Reported pEC50?
7.77
